# ASSAY_SYSTEM: Beta-secretase 1 (Homo sapiens)
# Sequence (P56817 whole entry): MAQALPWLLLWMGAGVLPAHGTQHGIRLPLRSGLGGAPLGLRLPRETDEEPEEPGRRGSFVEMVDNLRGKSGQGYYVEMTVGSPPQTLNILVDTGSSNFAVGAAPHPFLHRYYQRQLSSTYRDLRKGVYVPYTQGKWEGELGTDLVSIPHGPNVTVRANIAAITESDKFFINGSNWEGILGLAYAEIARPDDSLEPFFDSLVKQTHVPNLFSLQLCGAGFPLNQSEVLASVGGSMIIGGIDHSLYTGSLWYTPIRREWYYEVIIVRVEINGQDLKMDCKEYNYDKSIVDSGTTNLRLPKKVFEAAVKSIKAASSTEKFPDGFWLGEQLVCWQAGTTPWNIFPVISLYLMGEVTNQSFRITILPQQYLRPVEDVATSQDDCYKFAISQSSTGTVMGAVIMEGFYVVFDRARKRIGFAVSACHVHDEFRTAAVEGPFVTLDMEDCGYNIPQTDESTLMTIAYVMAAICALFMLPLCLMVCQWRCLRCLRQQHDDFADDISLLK
# PROCEDURE_DETAILS: Inhibition of human brain beta-secretase, using MBPC125Swe (maltose-binding-protein C-125 Swedish) assay
pIC50: −log10 of the molar value. Starred links: 1 amine or outer side, 2 acyl side, 3 side chain; linkers in the order of their positions; H or OH if unused. Non-standard residues stand in square brackets, D forms with d. Residues, ends and D or L forms follow the SMILES beside them. ξ: configuration not given here. LeuΨ(ξCHOHCH2)Val = CC(C)C[C@H](N[*:1])C(O)C[C@H](C(=O)[*:2])C(C)C; Sta(3ξ) = CC(C)C[C@H](N[*:1])C(O)CC(=O)[*:2]; X4 = O=C(CC(O)[C@H](Cc1ccccc1)N[*:1])[*:2]; Sta = CC(C)C[C@H](N)[C@@H](O)CC(=O)O; X1 = CC(C)CC(N[*:1])C(O)CC(=O)[*:2]
REPORTED_PROPERTY: pIC50

Examples with their reported pIC50 follow.
COMPOUND	RECORDED_NUMBER
CC(=O)N[C@H](C(=O)N[C@@H](CC(N)=O)C(=O)NC(CC(C)C)C(O)CC(=O)N[C@H](C(=O)N[C@@H](C)C(=O)N[C@@H](CCC(=O)O)C(=O)N[C@@H](Cc1ccccc1)C(=O)O)C(C)C)C(C)C (stereo not given in full) (Ac-VN[X1]VAEF-OH)	6.30
CSCC[C@H](NC(=O)[C@@H](NC(C)=O)C(C)C)C(=O)NC(CC(C)C)C(O)CC(=O)N[C@H](C(=O)N[C@@H](C)C(=O)N[C@@H](CCC(=O)O)C(=O)N[C@@H](Cc1ccccc1)C(=O)O)C(C)C (stereo not given in full) (Ac-VM[X1]VAEF-OH)	6.52
CC[C@H](C)[C@H](NC(=O)[C@H](CCC(=O)O)NC(=O)[C@H](CCC(=O)O)NC(=O)[C@@H](NC(=O)[C@@H](N)CCCCN)[C@@H](C)O)C(=O)N[C@@H](CO)C(=O)N[C@@H](CCC(=O)O)C(=O)N[C@H](C(=O)N[C@@H](CC(N)=O)C(=O)N[C@@H](CC(C)C)[C@@H](O)CC(=O)N[C@@H](CC(=O)O)C(=O)N[C@@H](C)C(=O)N[C@@H](CCC(=O)O)C(=O)N[C@@H](Cc1ccccc1)C(=O)O)C(C)C (H-KTEEISEVN[Sta]DAEF-OH)	4.40
CSCC[C@H](NC(=O)[C@@H](NC(C)=O)C(C)C)C(=O)N[C@@H](Cc1ccccc1)C(O)CC(=O)N[C@H](C(=O)N[C@@H](C)C(=O)N[C@@H](CCC(=O)O)C(=O)N[C@@H](Cc1ccccc1)C(=O)O)C(C)C (stereo not given in full) (Ac-VM[X4]VAEF-OH)	6.30
CC[C@H](C)[C@H](NC(=O)[C@H](CCC(=O)O)NC(=O)[C@H](CCC(=O)O)NC(=O)[C@@H](NC(=O)[C@@H](N)CCCCN)[C@@H](C)O)C(=O)N[C@@H](CO)C(=O)N[C@@H](CCC(=O)O)C(=O)N[C@H](C(=O)N[C@@H](CC(N)=O)C(=O)N[C@@H](CC(C)C)[C@@H](O)CC(=O)N[C@@H](C)C(=O)N[C@@H](C)C(=O)N[C@@H](CCC(=O)O)C(=O)N[C@@H](Cc1ccccc1)C(=O)O)C(C)C (H-KTEEISEVN[Sta]AAEF-OH)	6.30
CSCC[C@H](NC(=O)[C@@H](NC(C)=O)C(C)C)C(=O)N[C@@H](CC(C)C)C(O)C[C@H](C(=O)N[C@@H](C)C(=O)N[C@@H](CCC(=O)O)C(=O)N[C@@H](Cc1ccccc1)C(=O)O)C(C)C (stereo not given in full) (Ac-VM[LeuΨ(ξCHOHCH2)Val]AEF-OH)	7.70
CC[C@H](C)[C@H](NC(=O)[C@H](CCC(=O)O)NC(=O)[C@H](CCC(=O)O)NC(=O)[C@@H](NC(=O)[C@@H](N)CCCCN)[C@@H](C)O)C(=O)N[C@@H](CO)C(=O)N[C@@H](CCC(=O)O)C(=O)N[C@H](C(=O)N[C@@H](CC(N)=O)C(=O)N[C@@H](CC(C)C)[C@@H](O)CC(=O)N[C@@H](CC(=O)O)C(=O)N[C@@H](C)C(=O)N[C@@H](CCC(=O)O)C(=O)N[C@@H](Cc1ccccc1)C(=O)N[C@@H](CCCN=C(N)N)C(=O)O)C(C)C (H-KTEEISEVN[Sta]DAEFR-OH)	4.22
CC(C)C[C@H](NC(=O)[C@H](CC(N)=O)NC(=O)[C@H](C)NC(=O)[C@@H](N)CCC(=O)O)C(O)CC(=O)N[C@H](C(=O)N[C@@H](C)C(=O)N[C@@H](CCC(=O)O)C(=O)N[C@@H](Cc1ccccc1)C(=O)O)C(C)C (stereo not given in full) (H-EAN[Sta(3ξ)]VAEF-OH)	5.60

a. CSCC[C@H](NC(=O)[C@@H](NC(C)=O)C(C)C)C(=O)NC(CC(C)C)C(O)CC(=O)N[C@H](C(=O)N[C@@H](C)C(=O)N[C@@H](CCC(=O)O)C(=O)N[C@@H](Cc1ccccc1)C(=O)O)[C@H](C)O (stereo not given in full)
b. CSCC[C@H](NC(=O)[C@@H](NC(C)=O)C(C)C)C(=O)N[C@@H](CC(C)C)C(O)CC(=O)N[C@H](C(=O)N[C@@H](C)C(=O)N[C@@H](CCC(=O)O)C(=O)N[C@@H](C)C(=O)O)C(C)C (stereo not given in full) (Ac-VM[Sta(3ξ)]VAEA-OH)
Task: Lab note: check whether a or b shows the higher recorded pIC50. Answer by stating the label of the chosen item.
Result: b
(b: 5.92, a: 4.00)
